# assay name: Waters Atlantis T3, 100 × 2.1 mm, 3 µm, 0.1 mL/min, estimated dead time 2.2 min; A: water + 0.01% formic acid; B: methanol + 0.01% formic acid; gradient (min/%B) 0/5 3/5 20/100 29/100
# measurement setup: stereoisomer not certain
readout: LC retention time (min)
One number for each entry, in min.

Here are 5 molecules together with their reported answers.
[
  {
    "molecule": "CCC1OC(=O)C(C)C(OC2CC(C)(OC)C(O)C(C)O2)C(C)C(OC2OC(C)CC(N(C)C)C2O)C(C)(OC)CC(C)C(=O)C(C)C(O)C1(C)O (configuration not stated)",
    "reading unit": "min",
    "test value": 18.7
  },
  {
    "molecule": "CC(=O)Oc1ccc2c3c1OC1C(OC(C)=O)C=CC4C(C2)N(C)CCC341 (configuration not stated)",
    "reading unit": "min",
    "test value": 14.1
  },
  {
    "molecule": "CNCCC=C1c2ccccc2CCc2ccccc21",
    "reading unit": "min",
    "test value": 18
  },
  {
    "molecule": "CC(=O)C1CCC2C3CCC4=CC(=O)CCC4(C)C3CCC12C (configuration not stated)",
    "reading unit": "min",
    "test value": 24.8
  },
  {
    "molecule": "COc1ccc2c3c1OC1C(O)C=CC4C(C2)N(C)CCC341 (configuration not stated)",
    "reading unit": "min",
    "test value": 11.8
  }
]

Give me LC retention time for each of these molecules, listed below.
1. CC12CCC(=O)C=C1CCC1C2C(O)CC2(C)C1CCC2(O)C(=O)CO (configuration not stated)
2. CCNC(C)Cc1ccc2c(c1)OCO2 (configuration not stated)
3. CCn1cc(C(=O)O)c(=O)c2cc3c(cc21)OCO3
4. CNC(C)Cc1ccc2c(c1)OCO2 (configuration not stated)

**Result**
[20.6, 13.4, 18.3, 13]

====

# assay name: Waters Atlantis T3, 100 × 2.1 mm, 3 µm, 0.1 mL/min, estimated dead time 2.2 min; A: water + 0.01% formic acid; B: methanol + 0.01% formic acid; gradient (min/%B) 0/5 3/5 20/100 29/100
# measurement setup: stereoisomer not certain
Give LC retention time for every item shown.
Numbers only, in min.

Consider the following illustrative entries.
[
  {
    "compound": "CN(C)C1C(=O)C(C(N)=O)=C(O)C2(O)C(=O)C3=C(O)c4c(O)cccc4C(C)(O)C3CC12 (stereo unspecified)",
    "reading unit": "min",
    "LC retention time": 14.5
  },
  {
    "compound": "NC(=O)N1c2ccccc2C=Cc2ccccc21",
    "reading unit": "min",
    "LC retention time": 20.2
  },
  {
    "compound": "CCC1(c2ccccc2)C(=O)NCNC1=O",
    "reading unit": "min",
    "LC retention time": 17.1
  },
  {
    "compound": "CCC1OC(=O)CC(O)C(C)C(OC2OC(C)C(OC3CC(C)(O)C(O)C(C)O3)C(N(C)C)C2O)C(CC=O)CC(C)C(=O)C=CC(C)=CC1COC1OC(C)C(O)C(OC)C1OC (stereo unspecified)",
    "reading unit": "min",
    "LC retention time": 17.6
  },
  {
    "compound": "COCCc1ccc(OCC(O)CNC(C)C)cc1 (stereo unspecified)",
    "reading unit": "min",
    "LC retention time": 11.2
  },
  {
    "compound": "CC1(C)OC2COC3(COS(N)(=O)=O)OC(C)(C)OC3C2O1 (stereo unspecified)",
    "reading unit": "min",
    "LC retention time": 18.3
  },
  {
    "compound": "C=CC1(C)CC(OC(=O)CSCCN(CC)CC)C2(C)C(C)CCC3(CCC(=O)C32)C(C)C1O (stereo unspecified)",
    "reading unit": "min",
    "LC retention time": 17.3
  },
  {
    "compound": "CCC1OC(=O)C(C)C(OC2CC(C)(OC)C(O)C(C)O2)C(C)C(OC2OC(C)CC(N(C)C)C2O)C(C)(O)CC(C)CN(C)C(C)C(O)C1(C)O (stereo unspecified)",
    "reading unit": "min",
    "LC retention time": 18.7
  }
]

Please go through the list and note LC retention time for each compound.
1. CN(C)CCC=C1c2ccccc2CCc2ccccc21
2. COc1cc(Cc2cnc(N)nc2N)cc(OC)c1OC
3. CCOP(=O)(Sc1ccccc1)Sc1ccccc1
4. CNC(=C[N+](=O)[O-])NCCSCc1ccc(CN(C)C)o1
5. CC(=O)Nc1ccc(O)cc1
6. COc1ccc2c3c1OC1C(=O)CCC4(O)C(C2)N(C)CCC314 (stereo unspecified)

**Result**
17.9
12.9
16.2
11.4
13.3
12.1

====

# assay name: Waters Atlantis T3, 100 × 2.1 mm, 3 µm, 0.1 mL/min, estimated dead time 2.2 min; A: water + 0.01% formic acid; B: methanol + 0.01% formic acid; gradient (min/%B) 0/5 3/5 20/100 29/100
# measurement setup: stereoisomer not certain
Hi there, I'd appreciate the recorded LC retention time for every entry that follows.

Take a look at these entries with their results.
[
  {
    "compound": "CCN(CC)C(=O)C1C=C2c3cccc4[nH]cc(c34)CC2N(C)C1 (configuration not stated)",
    "LC retention time": "15.1 min"
  },
  {
    "compound": "CCCCCc1cc(O)c2c(c1C(=O)O)OC(C)(C)C1CCC(C)=CC21 (configuration not stated)",
    "LC retention time": "26.9 min"
  }
]

Record LC retention time for all entries; do not skip any.
1. Cc1noc(NS(=O)(=O)c2ccc(N)cc2)c1C
2. CNC(C)Cc1ccccc1 (configuration not stated)
3. CC(C)NCC(O)COc1cccc2ccccc12 (configuration not stated)
4. Cc1ncc([N+](=O)[O-])n1CCO
5. CCN(CC)CC(=O)Nc1c(C)cccc1C
6. CC1=C(C(=O)O)N2C(=O)C(NC(=O)C(N)c3ccccc3)C2SC1 (configuration not stated)

**Result**
["14.6 min", "12.8 min", "16.2 min", "13.3 min", "13.4 min", "11.8 min"]

====

Give measured LC retention time for each item. Keep answers brief.
# assay name: Waters Atlantis T3, 100 × 2.1 mm, 3 µm, 0.1 mL/min, estimated dead time 2.2 min; A: water + 0.01% formic acid; B: methanol + 0.01% formic acid; gradient (min/%B) 0/5 3/5 20/100 29/100
# measurement setup: stereoisomer not certain
Give bare numbers, in min.

Guide cases for LC retention time, answers given:
[
  {
    "compound": "CC(=O)OC1C=CC2C3Cc4ccc(O)c5c4C2(CCN3C)C1O5 (stereo not drawn)",
    "LC retention time (min)": 12.5
  },
  {
    "compound": "Cc1cc2c(s1)Nc1ccccc1N=C2N1CCN(C)CC1",
    "LC retention time (min)": 12.6
  }
]

Hi there! I need LC retention time for each item below, if you can.
1. CN1CCN2c3ncc(O)cc3Cc3ccccc3C2C1 (stereo not drawn)
2. Cn1c(=O)c2c(ncn2C)n(C)c1=O

**Result**
1: 13.6; 2: 15.2

====

Would you mind telling me the reported LC retention time of each entry?
# assay name: Waters Atlantis T3, 100 × 2.1 mm, 3 µm, 0.1 mL/min, estimated dead time 2.2 min; A: water + 0.01% formic acid; B: methanol + 0.01% formic acid; gradient (min/%B) 0/5 3/5 20/100 29/100
# measurement setup: stereoisomer not certain
Numbers only, in min.

The following compounds have reported results that may help.
[
  {
    "compound": "COC(=O)C1C(OC(=O)c2ccccc2)CC2CCC1N2C (configuration not stated)",
    "test value": 14.3
  },
  {
    "compound": "CNC(C)C(O)c1ccccc1 (configuration not stated)",
    "test value": 11.7
  },
  {
    "compound": "CC12CCC(=O)C=C1CCC1C2C(=O)CC2(C)C1CCC2(O)C(=O)CO (configuration not stated)",
    "test value": 20
  },
  {
    "compound": "CN(C)C(=N)N=C(N)N",
    "test value": 3.04
  },
  {
    "compound": "CC(C)NCC(O)COc1ccc(CC(N)=O)cc1 (configuration not stated)",
    "test value": 11.3
  },
  {
    "compound": "COC12CCC3(CC1C(C)(O)C(C)(C)C)C1Cc4ccc(O)c5c4C3(CCN1CC1CC1)C2O5 (configuration not stated)",
    "test value": 16.8
  }
]

**Query** Which LC retention time is listed for Cc1nnc(SCC2=C(C(=O)O)N3C(=O)C(NC(=O)Cn4cnnn4)C3SC2)s1 (configuration not stated) ?
**Result** 17.6

====

# assay name: Waters Atlantis T3, 100 × 2.1 mm, 3 µm, 0.1 mL/min, estimated dead time 2.2 min; A: water + 0.01% formic acid; B: methanol + 0.01% formic acid; gradient (min/%B) 0/5 3/5 20/100 29/100
# measurement setup: stereoisomer not certain
Task for the reader: assign each of the following compounds its reported LC retention time.
One number for each entry, in min.

[
  {
    "compound": "CC(N)C(O)c1ccccc1 (centres undefined)",
    "reading unit": "min",
    "LC retention time": 10.9
  }
]

Hi! Can you tell me LC retention time for each of these compounds?
1. O=C1CN=C(c2ccccc2)c2cc([N+](=O)[O-])ccc2N1
2. CC1(C)SC2C(NC(=O)C(N)c3ccc(O)cc3)C(=O)N2C1C(=O)O (centres undefined)
3. Cn1c([N+](=O)[O-])cnc1COC(N)=O

**Result**
20.4
11.2
13.2
